All values here come from ChEMBL document CHEMBL4828705.

# target: Carbonic anhydrase 9 (Homo sapiens, UniProt Q16790)
# method-description: Inhibition of recombinant human CA9 preincubated for 15 mins by phenol red dye-based stopped-flow CO2 hydration assay
pKi: −log10 of the molar value.
readout-label: pKi

Guide cases for pKi, answers given:
{"columns": ["molecule", "pKi"],
 "data": [
  ["COc1ccc(NS(=O)(=O)c2ccc(-n3ncc4c3CCCC4=O)cc2)cc1", 4.25],
  ["Cc1ccc(NS(=O)(=O)c2ccc(-n3ncc4c3CC(c3ccccc3)CC4=O)cc2)cc1 (configuration not stated)", 4.33],
  ["O=C1CC(c2ccccc2)Cc2c1cnn2-c1ccc(S(=O)(=O)Nc2cccc([N+](=O)[O-])c2)cc1 (configuration not stated)", 4.07],
  ["COc1cccc(NS(=O)(=O)c2ccc(-n3ncc4c3CC(c3ccccc3)CC4=O)cc2)c1 (configuration not stated)", 4.24],
  ["O=C1CCCc2c1cnn2-c1ccc(S(=O)(=O)Nc2ccc([N+](=O)[O-])cc2)cc1", 4.08],
  ["O=C1CC(c2ccccc2)Cc2c1cnn2-c1ccc(S(=O)(=O)Nc2ccccc2)cc1 (configuration not stated)", 4.02],
  ["O=C1CC(c2ccccc2)Cc2c1cnn2-c1ccc(S(=O)(=O)Nc2ccc(Cl)cc2)cc1 (configuration not stated)", 4.33],
  ["COc1ccc(NS(=O)(=O)c2ccc(-n3ncc4c3CC(c3ccccc3)CC4=O)cc2)cc1 (configuration not stated)", 4.40]
]}

A: O=C1CCCc2c1cnn2-c1ccc(S(=O)(=O)Nc2ccccc2)cc1
B: Cc1ccc(NS(=O)(=O)c2ccc(-n3ncc4c3CCCC4=O)cc2)cc1
C: Cc1cccc(NS(=O)(=O)c2ccc(-n3ncc4c3CC(c3ccccc3)CC4=O)cc2)c1 (configuration not stated)
D: O=C1CC(c2ccccc2)Cc2c1cnn2-c1ccc(S(=O)(=O)Nc2ccc([N+](=O)[O-])cc2)cc1 (configuration not stated)
Kindly order the items shown according to pKi, from the highest value down. Returns: the labels listed in the requested order.
D, B, C, A

* * *

The following molecules are shown together with reported Ki values.
# target: UniProtKB Q16790
# method-description: Inhibition of recombinant human CA9 preincubated for 15 mins by phenol red dye-based stopped-flow CO2 hydration assay

{"columns": ["molecule", "target", "Ki"],
 "data": [
  ["COc1cccc(NS(=O)(=O)c2ccc(-n3ncc4c3CCCC4=O)cc2)c1", "UniProtKB Q16790", "> 100 µM"],
  ["CC1(C)CC(=O)c2cnn(-c3ccc(S(=O)(=O)Nc4ccc([N+](=O)[O-])cc4)cc3)c2C1", "UniProtKB Q16790", "> 100 µM"],
  ["CC1(C)CC(=O)c2cnn(-c3ccc(S(=O)(=O)Nc4ccccc4)cc3)c2C1", "UniProtKB Q16790", "> 100 µM"],
  ["COc1cccc(NS(=O)(=O)c2ccc(-n3ncc4c3CC(C)(C)CC4=O)cc2)c1", "UniProtKB Q16790", "> 100 µM"],
  ["Cc1ccc(NS(=O)(=O)c2ccc(-n3ncc4c3CC(C)(C)CC4=O)cc2)cc1", "UniProtKB Q16790", "> 100 µM"],
  ["O=C1CCCc2c1cnn2-c1ccc(S(=O)(=O)Nc2cccc([N+](=O)[O-])c2)cc1", "UniProtKB Q16790", "> 100 µM"],
  ["Cc1cccc(NS(=O)(=O)c2ccc(-n3ncc4c3CC(C)(C)CC4=O)cc2)c1", "UniProtKB Q16790", "> 100 µM"],
  ["CC1(C)CC(=O)c2cnn(-c3ccc(S(=O)(=O)Nc4cccc(Cl)c4)cc3)c2C1", "UniProtKB Q16790", "> 100 µM"]
]}

Form: molecule = O=C1CC(c2ccccc2)Cc2c1cnn2-c1ccc(S(=O)(=O)Nc2cccc(Cl)c2)cc1 (stereo not given) ; Ki = 41.8 µM

Form: molecule = CC1(C)CC(=O)c2cnn(-c3ccc(S(=O)(=O)Nc4cccc([N+](=O)[O-])c4)cc3)c2C1 ; Ki = > 100 µM

Form: molecule = Cc1cccc(NS(=O)(=O)c2ccc(-n3ncc4c3CCCC4=O)cc2)c1 ; Ki = 33 µM

Form: molecule = COc1ccc(NS(=O)(=O)c2ccc(-n3ncc4c3CC(C)(C)CC4=O)cc2)cc1 ; Ki = > 100 µM

Form: molecule = O=C1CCCc2c1cnn2-c1ccc(S(=O)(=O)Nc2ccc(Cl)cc2)cc1 ; Ki = > 100 µM

Form: molecule = O=C1CCCc2c1cnn2-c1ccc(S(=O)(=O)Nc2cccc(Cl)c2)cc1 ; Ki = 37.1 µM

Form: molecule = CC1(C)CC(=O)c2cnn(-c3ccc(S(=O)(=O)Nc4ccc(Cl)cc4)cc3)c2C1 ; Ki = > 100 µM
